- Target desc: T1, Spy_(29-124) (Escherichia coli K-12 substr. MG1655, UniProt P77754 52-147)
- T1 construct: [15N]-labeled in the NMR titrations; also called termini-free Spy; source: E. coli BL21 (DE3), purified (Ni-NTA, cation exchange, SEC); not shown: His6, N-terminal, cleaved; SUMO, N-terminal, cleaved
- T1 sequence (looked up): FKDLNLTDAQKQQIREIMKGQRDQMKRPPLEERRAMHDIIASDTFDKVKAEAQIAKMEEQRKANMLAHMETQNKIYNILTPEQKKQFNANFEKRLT
- Test description: NMR titration; 0.1 mM [15N]-Spy29-124 titrated with unlabeled peptide at Spy29-124:peptide 1:2 to 1:40; 1H-15N HSQC, 40 mM HEPES-NaOH, 150 mM NaCl, pH 7.5, 25 °C; global one-site fit of the CSPs of M64, H65, D66, I67, A69, K113, N116, A117, K121; saturation not reached, Kd only an estimate
- Protocol conditions: both partners purified
pKd: −log10 of the molar value.
Reported metric: pKd

Req: Return the recorded pKd value; entry: ADTTTAAPADAKPMMHHKGKFGPHQDMM (Unlabeled peptide; also called Nt-pep WT; peptide corresponding to Spy residues 1-28) [Nt-pep]
Resp: 2.32

Req: Return the recorded pKd value; entry: ADTTTAAPADAKPMMHHKGKFGPHQRMM (peptide, UniProt P77754 24-51, looked up, Spy of E. coli, residues 1-28 with D26R) [Nt-pep D26R]
Resp: 2.15

Req: Return the recorded pKd value; entry: ADTTTAAPADAKPMMHHKGKFGPHQKMM (peptide, UniProt P77754 24-51, looked up, Spy of E. coli, residues 1-28 with D26K) [Nt-pep D26K]
Resp: 2.20
